Biological target: JAK2 (JH1domain-catalytic, Y1007F,Y1008F) kinase (Homo sapiens, UniProt O60674, Y1007F/Y1008F)
Construct: JAK2 (JH1domain-catalytic, Y1007F,Y1008F) kinase was expressed as N-terminal fusion
Sequence (O60674 849-1124 Y1007F/Y1008F limits assumed): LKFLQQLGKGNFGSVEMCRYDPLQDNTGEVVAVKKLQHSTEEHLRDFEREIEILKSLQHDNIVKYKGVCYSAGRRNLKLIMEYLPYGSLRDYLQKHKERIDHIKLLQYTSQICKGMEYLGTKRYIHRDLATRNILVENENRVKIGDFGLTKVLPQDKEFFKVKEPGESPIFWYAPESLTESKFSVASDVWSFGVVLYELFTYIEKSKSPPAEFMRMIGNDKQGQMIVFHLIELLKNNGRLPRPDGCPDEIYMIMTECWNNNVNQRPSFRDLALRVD
Assay: JAK2 JH1 Domain Binding Assay
Conditions: qPCR readout
valueKind: Kd

compound=Cn1c(Nc2cc(C(C)(C)C)n([C@@H]3CCN(CCF)C3)n2)nc2ncc(Oc3cnn4ccncc34)c(Cl)c21 valuekind=Kd readoutvalue="< 10 nM"
compound=CNc1cn2ncc(Oc3cnc4nc(Nc5cc(CN(C)C)cc(C(F)(F)F)c5)n(C)c4c3Cl)c2cn1 valuekind=Kd readoutvalue="10 to 50 nM"
compound=Cn1c(Nc2cc(C3CC3)cn([C@H]3C[C@@H](O)C3)c2=O)nc2ncc(Oc3cnn4cc(F)ccc34)c(Cl)c21 valuekind=Kd readoutvalue="< 10 nM"
compound=CNc1cn2ncc(Oc3cnc4nc(Nc5cc(C(F)(F)F)cn(-c6cnn(C)c6)c5=O)n(C)c4c3Cl)c2cn1 valuekind=Kd readoutvalue="10 to 50 nM"
compound="COc1c(Oc2cnn3ccncc23)cnc2nc(Nc3cc(C4CC4)cn([C@@H]4CCCOC4)c3=O)n(C)c12 (single isomer, unassigned)" valuekind=Kd readoutvalue="< 10 nM"
compound=Cn1c(Nc2cnc(N3CCC3)c(C(F)(F)F)c2)nc2ncc(Oc3cnn4ccncc34)c(Cl)c21 valuekind=Kd readoutvalue="10 to 50 nM"
compound=COc1c(Oc2cnn3ccncc23)cnc2nc(Nc3cc(C4CC4)cn(CC(C)(C)OC)c3=O)n(C)c12 valuekind=Kd readoutvalue="10 to 50 nM"
compound=Cn1c(Nc2cc(C(C)(C)C)n([C@H]3CCO[C@@H]3CO)n2)nc2ncc(Oc3cnn4ccnc4c3)c(Cl)c21 valuekind=Kd readoutvalue="10 to 50 nM"
compound=Cn1cc(C(F)(F)F)cc(Nc2nc3ncc(Oc4cnc5[nH]ccc5c4F)c(C#N)c3n2C)c1=O valuekind=Kd readoutvalue="< 10 nM"
compound=CNc1nccn2ncc(Oc3cnc4nc(Nc5cc(C(F)(F)F)cn(-c6cnn(C)c6)c5=O)n(C)c4c3Cl)c12 valuekind=Kd readoutvalue="< 10 nM"
compound=CNc1nccn2ncc(Oc3cnc4nc(Nc5cc(C(=O)N(C)C)c(F)c(C(F)(F)F)c5)n(C)c4c3Cl)c12 valuekind=Kd readoutvalue="10 to 50 nM"
compound=CNc1cn2ncc(Oc3cnc4nc(Nc5cc6c(c(C(F)(F)F)c5)C(C)(C)N(C)C6=O)n(C)c4c3Cl)c2cn1 valuekind=Kd readoutvalue="10 to 50 nM"
compound="Cn1c(Nc2cc(C(C)(C)C)n([C@H]3CC[C@H]3O)n2)nc2ncc(Oc3cnn4ccncc34)c(Cl)c21 (single isomer, unassigned)" valuekind=Kd readoutvalue="< 10 nM"

Attribution: patent US12043632B2
